Just for reference, the supplement of paper PMC9694430 is where these values come from.

Tested on: LOC_OS06G22820-cb001
Sequence (whole entry): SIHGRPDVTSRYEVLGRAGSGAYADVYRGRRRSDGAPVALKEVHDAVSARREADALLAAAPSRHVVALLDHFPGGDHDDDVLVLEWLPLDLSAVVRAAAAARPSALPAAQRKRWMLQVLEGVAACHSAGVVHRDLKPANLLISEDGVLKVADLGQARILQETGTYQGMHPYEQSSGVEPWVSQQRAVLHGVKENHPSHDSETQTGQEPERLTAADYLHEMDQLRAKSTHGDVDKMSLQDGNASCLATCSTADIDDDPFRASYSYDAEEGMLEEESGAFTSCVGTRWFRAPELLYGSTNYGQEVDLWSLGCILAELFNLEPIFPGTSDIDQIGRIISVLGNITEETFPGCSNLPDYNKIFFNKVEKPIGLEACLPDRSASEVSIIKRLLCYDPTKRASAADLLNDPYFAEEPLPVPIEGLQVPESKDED
Test: thermal shift delta Tm vs DMSO control; higher = stronger stabilization (binding);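 also: purified Escherichia coli-expressed rice kinase domain construct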
Conditions: 12.5 µM; protein concentration 2 µM
Give 1 (yes) when the value for thermal shift delta Tm is at least 0.4 °C. Give 0 (no) when it is less.

                                 smilesrepr      cat
0  Cc1cnc(Nc2ccc(N3CCN(C)CC3)cc2)nc1Nc1cccc(S(=O)(=O)NC(C)(C)C)c1  1 (yes)
1             Cc1ccc2nc(NCCN)c3ncc(C)n3c2c1  1 (yes)
2  CS(=O)(=O)CCNCc1ccc(-c2ccc3ncnc(Nc4ccc(OCc5cccc(F)c5)c(Cl)c4)c3c2)o1  1 (yes)
3  Fc1ccc2[nH]ccc2c1-c1nc(N2CCOCC2)c2sc(CN3CCN(CC4CC4)CC3)cc2n1  1 (yes)
4  CCNC(=O)Nc1ccc(-c2nc3c(c(N4CCOC[C@@H]4C)n2)CCN(C2COC2)C3)cc1   0 (no)

###

system: LOC_OS01G39600-cb002; assay: thermal shift delta Tm vs DMSO control; higher = stronger stabilization (binding); conditions: 12.5 µM; protein concentration 2 µM
readout: thermal shift delta Tm (°C)

>>> print(df.to_string())
                                   molecule          systemtested  outputunit  observedresult
0  COc1cc(CCc2cc(NC(=O)c3ccc(N4CC(C)NC(C)C4)cc3)n[nH]2)cc(OC)c1 (stereo not drawn)  LOC_OS01G39600-cb002          °C            0.43
1  COc1nccc(-c2c(-c3ccc(F)cc3)ncn2C2CCC(O)CC2)n1 (stereo not drawn)  LOC_OS01G39600-cb002          °C           -0.45
2  Cn1ncc(Cl)c1-c1cc(C(=O)N[C@H](CN)Cc2cccc(F)c2)sc1Cl  LOC_OS01G39600-cb002          °C            -0.1
3  CCS(=O)(=O)Nc1ccc2c(c1)/C(=C(/Nc1ccc(CN3CCCCC3)cc1)c1ccccc1)C(=O)N2  LOC_OS01G39600-cb002          °C            7.78
4  Fc1ccc2[nH]ccc2c1-c1nc(N2CCOCC2)c2sc(CN3CCN(CC4CC4)CC3)cc2n1  LOC_OS01G39600-cb002          °C           -0.27
5  COCC(=O)NC/C=C/c1ccc2ncnc(Nc3ccc(Oc4ccc(C)nc4)c(C)c3)c2c1  LOC_OS01G39600-cb002          °C            1.61
6  COC(=O)N[C@@H](C)CNc1nccc(-c2cn(C(C)C)nc2-c2cc(Cl)cc(NS(C)(=O)=O)c2F)n1  LOC_OS01G39600-cb002          °C            0.05
7  CN1CCN(c2ccc3nc(-c4c(N)c5c(F)cccc5[nH]c4=O)[nH]c3c2)CC1 [Dovitinib (TKI-258, CHIR-258)]  LOC_OS01G39600-cb002          °C            2.01

###

tested on: LOC_OS01G48390-cb002; test: thermal shift delta Tm vs DMSO control; higher = stronger stabilization (binding); details: 12.5 µM; protein concentration 2 µM
Where a name gives a salt, the structure may show the parent alone.
readout: thermal shift delta Tm (°C)

>>> print(df.to_string())
                                   compound                 readout  observedresult
0  CNC(=O)c1ccc(-c2cnc3ncc(Cc4ccc5ncccc5c4)n3n2)cc1F  thermal shift delta Tm            0.24
1  CCN1C(=O)CNc2ncc(-c3ccc(-c4nc[nH]n4)nc3C)nc21  thermal shift delta Tm            0.34
2  CC(=O)c1c(C)c2cnc(Nc3ccc(N4CCNCC4)cn3)nc2n(C2CCCC2)c1=O  thermal shift delta Tm             0.1
3  CCCNC(=O)Nc1ccc(Oc2ncnc3cc(OC)c(OC)cc23)cc1Cl  thermal shift delta Tm            0.53
4  C=C(C)[C@@H]1CC[C@]2(C)CC[C@]3(C)[C@H](CC[C@@H]4[C@@]5(C)CC[C@H](O)C(C)(C)[C@@H]5CC[C@]43C)[C@@H]12  thermal shift delta Tm           -0.09
5  CCCS(=O)(=O)Nc1ccc(F)c(C(=O)c2c[nH]c3ncc(-c4ccc(Cl)cc4)cc23)c1F  thermal shift delta Tm            3.18
6  Nc1ncccc1-c1nc2ccc(-c3ccccc3)nc2n1-c1ccc(C2(N)CCC2)cc1 [Miransertib (ARQ 092) HCl]  thermal shift delta Tm            0.09
7  Oc1ccc(-c2nc(-c3ccc(F)cc3)c(-c3ccncc3)[nH]2)cc1  thermal shift delta Tm            0.38

###

test system: LOC_OS04G35114-cb001; assay: thermal shift delta Tm vs DMSO control; higher = stronger stabilization (binding); settings: 12.5 µM; protein concentration 2 µM
Where a name gives a salt, the structure may show the parent alone.
readout: thermal shift delta Tm (°C)

>>> print(df.to_string())
                                   compound          systemtested  outputunit  observedresult
0  O=C(Nc1cccc(Cl)c1)Nc1ncc(CCNc2ncnc3ccsc23)s1 [SNS-314 Mesylate]  LOC_OS04G35114-cb001          °C            1.73
1  CN(c1ccccc1CNc1nc(Nc2ccc3c(c2)CC(=O)N3)ncc1C(F)(F)F)S(C)(=O)=O  LOC_OS04G35114-cb001          °C            5.87
2  CCn1c(=O)c(-c2ccc(Cl)cc2Cl)cc2cnc(Nc3ccc(N4CCNCC4)c(F)c3)nc21  LOC_OS04G35114-cb001          °C              11
3  O=C1NC(=O)C(c2ccccc2[N+](=O)[O-])=C1Nc1ccc(O)c(Cl)c1  LOC_OS04G35114-cb001          °C            1.02
4  CS(=O)(=O)CCNCc1ccc(-c2ccc3ncnc(Nc4ccc(OCc5cccc(F)c5)c(Cl)c4)c3c2)o1  LOC_OS04G35114-cb001          °C            0.48

###

tested on: LOC_OS03G27990-cb004; assay: thermal shift delta Tm vs DMSO control; higher = stronger stabilization (binding); conditions: 12.5 µM; protein concentration 2 µM
Give T when the value for thermal shift delta Tm is at least 0.1 °C. Give F when it is less.

                                    compound  cat
 0  N#CC1(c2ccc(NC(=O)c3cccnc3NCc3ccncc3)cc2)CCCC1    T
 1  CN1CCN(c2cccc(Nc3nc4c(-c5ccc(S(C)(=O)=O)cc5)cccn4n3)c2)CC1    T
 2  CCOc1cn(-c2ccc(F)cc2C)nc1C(=O)Nc1ccc(Oc2ccnc3cc(OC)c(OC)cc23)c(F)c1    T
 3  CN1CCN(Cc2ccc(NC(=O)Nc3ccc(Oc4ccnc(N)n4)cc3)cc2C(F)(F)F)CC1    F
 4  NCC(=O)Nc1ccc(-n2nc(C(F)(F)F)cc2-c2ccc3c(ccc4ccccc43)c2)cc1    F
 5  COc1cc2ncnc(Nc3ccc(F)c(Cl)c3)c2cc1NC(=O)/C=C/CN1CCCCC1    T
 6  CO[C@@H](C)Cn1c(=O)n(C)c2cnc3ccc(-c4cncc(C(C)(C)O)c4)cc3c21    T
 7  CCN(CC)CCCCNc1ncc2cc(-c3cc(OC)cc(OC)c3)c(NC(=O)NC(C)(C)C)nc2n1    T
 8  CNC(=O)c1ccc(Nc2ncc(C(F)(F)F)c(NCc3nccnc3N(C)S(C)(=O)=O)n2)cc1    T
 9  CC(C)(C)c1cc(NC(=O)Nc2ccc(-c3cn4c(n3)sc3cc(OCCN5CCOCC5)ccc34)cc2)no1    F
10  Cc1cc(Nc2cc(N3CCN(C)CC3)nc(Sc3ccc(NC(=O)C4CC4)cc3)n2)n[nH]1    T
11  Cn1cc(-c2ccc3ncc(Cc4ccc5ncccc5c4)n3n2)cn1    F
12  COc1ccc(CC(=O)Nc2nc3c(s2)CCc2ccccc2-3)cc1OC    T
13  CS(=O)(=O)c1cccc(CNc2nc(Nc3ccc4c(c3)CCC(=O)N4)ncc2C(F)(F)F)c1    T
14  NC(=O)c1cnc2[nH]ccc2c1N[C@@H]1[C@@H]2CC3C[C@H]1C[C@@](O)(C3)C2    T
15  CC1=C(C(=O)Nc2ccc3[nH]ncc3c2)C(c2ccc(F)cc2)NC(=O)N1 (centres undefined)    T
16              Oc1c2ccccc2c2c3c(cccc13)N=N2    T
17  COc1ccc(CCNCc2ccc(OCc3ccc(Cl)nc3)c(OC)c2)cc1OC    T
